# system_tested: Homo sapiens hexokinase IV (HsHxKIV) (Homo sapiens (Human))
# Sequence (P35557 whole entry): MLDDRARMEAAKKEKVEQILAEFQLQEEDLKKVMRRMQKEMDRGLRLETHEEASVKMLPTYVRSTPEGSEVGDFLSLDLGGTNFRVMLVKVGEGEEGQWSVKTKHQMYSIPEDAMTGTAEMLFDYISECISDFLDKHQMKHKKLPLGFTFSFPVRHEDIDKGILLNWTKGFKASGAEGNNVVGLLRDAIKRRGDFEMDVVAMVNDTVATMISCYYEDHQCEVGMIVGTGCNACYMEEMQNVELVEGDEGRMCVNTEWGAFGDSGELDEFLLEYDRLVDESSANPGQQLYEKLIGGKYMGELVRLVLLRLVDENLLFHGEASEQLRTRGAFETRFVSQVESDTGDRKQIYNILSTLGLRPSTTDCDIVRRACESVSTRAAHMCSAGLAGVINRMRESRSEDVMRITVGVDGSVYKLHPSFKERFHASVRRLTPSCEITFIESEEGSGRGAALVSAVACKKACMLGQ
# method_notes: HsHxKIV enzyme-inhibition screening assay (Example 1)
# Type: biochemical
# measurement_parameters: 20 μM compound; N = 1
endpoint_label: HsHxKIV Inh20(%)
Your answer is read as %, so omit the unit and give the number.

(Q) I'd like to know its HsHxKIV Inh20(%). The compound in question is O=C(N[C@H]1C(O)O[C@H](CO)[C@H](O)[C@@H]1O)c1cccc(Br)c1 (stereo partly shown)
(A) 30

(Q) Quick one: HsHxKIV Inh20(%) for O=C(N[C@H]1C(O)O[C@H](CO)C(O)[C@@H]1O)c1ccoc1 (stereo partly shown) ?
(A) 41

(Q) Which HsHxKIV Inh20(%) value belongs to O=C(N[C@@H]1C(O)O[C@H](CO)[C@@H](O)[C@@H]1O)c1ccoc1 (stereo partly shown) ?
(A) 32

(Q) State the recorded HsHxKIV Inh20(%) for this entry: O=C(N[C@@H]1C(O)O[C@H](CO)[C@@H](O)[C@@H]1O)c1ccc(CCl)cc1 (stereo partly shown)
(A) 28

Origin of the recorded values: patent US11059842B2
